assay target: panel of more than 300 wild-type and mutant kinases (313 kinase panel) (Homo sapiens)
Sequence (P41743 whole entry, change not shown): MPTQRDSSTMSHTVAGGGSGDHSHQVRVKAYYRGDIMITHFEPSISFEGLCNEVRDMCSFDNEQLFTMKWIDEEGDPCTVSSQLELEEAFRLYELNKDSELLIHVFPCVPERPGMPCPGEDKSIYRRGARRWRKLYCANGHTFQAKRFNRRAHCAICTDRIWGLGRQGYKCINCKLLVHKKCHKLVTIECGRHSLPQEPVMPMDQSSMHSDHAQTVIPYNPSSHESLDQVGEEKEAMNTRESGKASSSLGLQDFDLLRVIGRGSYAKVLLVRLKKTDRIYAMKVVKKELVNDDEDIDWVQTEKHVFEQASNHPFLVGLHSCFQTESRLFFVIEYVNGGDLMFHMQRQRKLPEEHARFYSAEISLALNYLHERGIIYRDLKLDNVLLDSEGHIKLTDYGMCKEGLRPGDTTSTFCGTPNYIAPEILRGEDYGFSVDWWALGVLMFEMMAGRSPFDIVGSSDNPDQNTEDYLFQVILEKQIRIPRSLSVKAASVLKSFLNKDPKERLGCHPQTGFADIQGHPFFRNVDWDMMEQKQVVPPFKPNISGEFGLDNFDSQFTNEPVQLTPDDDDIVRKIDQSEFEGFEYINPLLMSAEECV
test summary: Kinase profiling in a biochemical assay panel (mobility shift assays and ELISA), %-inhibition at 1 μM; selectivity entropy
experimental setup: kinase PKCι; 1 μM
experimental readout: %-inhibition of PKCι (%)
Your answer should be a plain number; it is taken to be in %.

Below, each entry is followed by its recorded %-inhibition of PKCι result.
COc1cc(Nc2c(C#N)cnc3cc(OCCCN4CCN(C)CC4)c(OC)cc23)c(Cl)cc1Cl [bosutinib]	5
Cc1ccc(Nc2nccc(N(C)c3ccc4c(C)n(C)nc4c3)n2)cc1S(N)(=O)=O [pazopanib]	0.255
CO[C@H]1C[C@@H]2CC[C@@H](C)[C@@](O)(O2)C(=O)C(=O)N2CCCC[C@H]2C(=O)O[C@H]([C@H](C)C[C@@H]2CC[C@@H](OC(=O)C(C)(CO)CO)[C@H](OC)C2)CC(=O)[C@H](C)/C=C(\C)[C@@H](O)[C@@H](OC)C(=O)[C@H](C)C[C@H](C)/C=C/C=C/C=C/1C [temsirolimus]	13

The record that follows has no %-inhibition of PKCι shown yet.
Please report the recorded %-inhibition of PKCι for CCCS(=O)(=O)Nc1ccc(F)c(C(=O)c2c[nH]c3ncc(-c4ccc(Cl)cc4)cc23)c1F [vemurafenib] .
-16

The origin of these recorded values is paper PMC3961306.
